tested on: Saccharomyces cerevisiae; experiment: protein stability index of tFT-peptide fusion (C-terminal peptide) (PSI (0-1 scale)); higher = more stable (slower turnover); conditions: genetic background: wild type; temperature: 30 C
Kindly return rule met if reported protein stability index is no lower than 0.7; return rule not met if it is lower.

Reference set (9 entries):
| Sequence Data | Classification |
| --- | --- |
| PVKTHPPPPPLP | rule met |
| SVQWPITIEVWK | rule not met |
| SVSPRVSSLSPL | rule not met |
| GWLGVRVCLAQR | rule not met |
| TPPVPVPPPQLL | rule met |
| FVFAYLPSYEAM | rule met |
| LFPLISPLQSER | rule met |
| NKKNKKRIGRNT | rule met |
| MGVTVRVEGIRA | rule not met |

Prompt line: I'd appreciate it if you could say whether SVIFSRSFCCPS has protein stability index at least equal to 0.7.
Response line: rule not met

* * *

Recorded measurements of protein stability index, one per entry
system: Saccharomyces cerevisiae; test: protein stability index of tFT-peptide fusion (C-terminal peptide) (PSI (0-1 scale)); higher = more stable (slower turnover); details: genetic background: doa10 deletion; temperature: 30 C

Examples from the recorded data:
| Sequence Data | Endpoint Label | Recorded Result |
| --- | --- | --- |
| ELNERRKRLVTN | protein stability index | 0.13 |
| QCRLPRPPLSLP | protein stability index | 0.672 |
| FVWVVRMLVFVP | protein stability index | 0.165 |
| CFVLVVCIPVMV | protein stability index | 0.18 |
| EKKNQTAYNKTV | protein stability index | 0.149 |
| LLVRYYLFYVLV | protein stability index | 0.255 |
| LWGLVWGGVWGV | protein stability index | 0.568 |
| SFLCILIFPFFP | protein stability index | 0.391 |

Prompt line: Identify measured protein stability index corresponding to FFLLLVGFSVLG
Response line: 0.224

* * *

test system: Saccharomyces cerevisiae; assay: protein stability index of tFT-peptide fusion (C-terminal peptide) (PSI (0-1 scale)); higher = more stable (slower turnover); details: genetic background: doa10 deletion; temperature: 30 C
Kindly return Y if reported protein stability index is no lower than 0.3; return N if it is lower.

Reference set (5 entries):
| Sequence Data | Classification |
| --- | --- |
| AFRFLAVCVGCG | N |
| VARWVYALGLLC | N |
| SFCSFVFVTFVL | Y |
| PRQPSKSNASNR | Y |
| VDVWRWRGLRVG | Y |

Prompt line: I'd appreciate it if you could say whether APTMAIIVVHVR has protein stability index at least equal to 0.3.
Response line: N

Prompt line: I'd appreciate it if you could say whether VFFSLSLILFPF has protein stability index at least equal to 0.3.
Response line: Y

Prompt line: I'd appreciate it if you could say whether LYRIETLFMRAQ has protein stability index at least equal to 0.3.
Response line: Y

* * *

test system: Saccharomyces cerevisiae; assay: protein stability index of tFT-peptide fusion (C-terminal peptide) (PSI (0-1 scale)); higher = more stable (slower turnover); conditions: genetic background: wild type; temperature: 30 C
Kindly return label 1 if reported protein stability index is no lower than 0.7; return label 0 if it is lower.

Reference set (3 entries):
| Sequence Data | Classification |
| --- | --- |
| QHTHNRLRAAQD | label 0 |
| REVSGLTIRMVR | label 0 |
| PCLLANFFFFPA | label 0 |

API: the following record is the query input.
Prompt line: I'd appreciate it if you could say whether PPPPSAPPLPLP has protein stability index at least equal to 0.7.
Response line: label 0

* * *

tested on: Saccharomyces cerevisiae; assay: protein stability index of tFT-peptide fusion (C-terminal peptide) (PSI (0-1 scale)); higher = more stable (slower turnover); settings: genetic background: wild type; temperature: 30 C
Endpoint Label: protein stability index
Could you keep your reply to the number by itself?

Examples from the recorded data:
| Sequence Data | protein stability index |
| --- | --- |
| YPCPPLLISSPP | 0.709 |
| NIRSRKYMLRKS | 0.744 |
| LNEVSLLSPAPL | 0.64 |

Prompt line: Identify measured protein stability index corresponding to VVGWSSGVVEVA
Response line: 0.688

Prompt line: Identify measured protein stability index corresponding to TGDFFGGLGTWS
Response line: 0.701

Prompt line: Identify measured protein stability index corresponding to GESRPPLASPHP
Response line: 0.708

Prompt line: Identify measured protein stability index corresponding to GMLGVGGYGGLW
Response line: 0.717

Prompt line: Identify measured protein stability index corresponding to VAGSGAGREAAY
Response line: 0.651

Prompt line: Identify measured protein stability index corresponding to TPTPGCYIASLT
Response line: 0.759

Prompt line: Identify measured protein stability index corresponding to YGLVSFVCFNGG
Response line: 0.679

Prompt line: Identify measured protein stability index corresponding to RFPVLRFPASFL
Response line: 0.669

Prompt line: Identify measured protein stability index corresponding to VLPAWSGTHFVG
Response line: 0.714

Prompt line: Identify measured protein stability index corresponding to PPPPPPPPAPLP
Response line: 0.708

Prompt line: Identify measured protein stability index corresponding to APYPVSRGLLGF
Response line: 0.656

Prompt line: Identify measured protein stability index corresponding to GVCRGSRVGLVP
Response line: 0.714

Prompt line: Identify measured protein stability index corresponding to RCTQCFSPFSTD
Response line: 0.722

Prompt line: Identify measured protein stability index corresponding to REKKDGKLSTTR
Response line: 0.761

Prompt line: Identify measured protein stability index corresponding to REERSRQSLVKW
Response line: 0.675

Prompt line: Identify measured protein stability index corresponding to GTRVGRARGGRK
Response line: 0.835

* * *

tested on: Saccharomyces cerevisiae; test: protein stability index of tFT-peptide fusion (C-terminal peptide) (PSI (0-1 scale)); higher = more stable (slower turnover); settings: genetic background: wild type; temperature: 30 C
Recorded measurements of protein stability index, one per entry
Could you keep your reply to the number by itself?

Prompt line: Identify measured protein stability index corresponding to MPGYLIRPPVIS
Response line: 0.709

Prompt line: Identify measured protein stability index corresponding to HPHAIDPKIESI
Response line: 0.693

Prompt line: Identify measured protein stability index corresponding to SIVIGGSWGRSW
Response line: 0.711

Prompt line: Identify measured protein stability index corresponding to SSEECYDTKGEL
Response line: 0.674

Prompt line: Identify measured protein stability index corresponding to RRPHLLCSPARL
Response line: 0.883

* * *

Recorded measurements of protein stability index, one per entry
system: Saccharomyces cerevisiae; test: protein stability index of tFT-peptide fusion (C-terminal peptide) (PSI (0-1 scale)); higher = more stable (slower turnover); conditions: genetic background: wild type; temperature: 30 C
Could you keep your reply to the number by itself?

Examples from the recorded data:
| Sequence Data | System Name | Endpoint Label | Recorded Result |
| --- | --- | --- | --- |
| RTANVVGLDVPT [FMC1 C-terminal 12 aa] | Saccharomyces cerevisiae | protein stability index | 0.664 |
| NSGSAATDSPFN [STS1 C-terminal 12 aa] | Saccharomyces cerevisiae | protein stability index | 0.674 |
| EKVIDGSIEHSS [YNR061C C-terminal 12 aa] | Saccharomyces cerevisiae | protein stability index | 0.703 |
| EHRNIEWEKKTA [POL4 C-terminal 12 aa] | Saccharomyces cerevisiae | protein stability index | 0.694 |

Prompt line: Report protein stability index on Saccharomyces cerevisiae for this entry: WQLVDNYESGYE [YGL194C-A C-terminal 12 aa]
Response line: 0.648

Prompt line: Report protein stability index on Saccharomyces cerevisiae for this entry: KTGKKNKVAKKN [SRP14 C-terminal 12 aa]
Response line: 0.692

Prompt line: Report protein stability index on Saccharomyces cerevisiae for this entry: RRKITLIEDDEE [SAS3 C-terminal 12 aa]
Response line: 0.672

Prompt line: Report protein stability index on Saccharomyces cerevisiae for this entry: KVSPADAAKKAL [RPS26A C-terminal 12 aa]
Response line: 0.718

Prompt line: Report protein stability index on Saccharomyces cerevisiae for this entry: KDSAQSLDDLLM [SFM1 C-terminal 12 aa]
Response line: 0.697

Prompt line: Report protein stability index on Saccharomyces cerevisiae for this entry: LMVPDPWYREGN [FAB1 C-terminal 12 aa]
Response line: 0.721

Prompt line: Report protein stability index on Saccharomyces cerevisiae for this entry: NLLRFIVGVDVL [YDR426C C-terminal 12 aa]
Response line: 0.638

Prompt line: Report protein stability index on Saccharomyces cerevisiae for this entry: EINSDFIENFEE [MSH4 C-terminal 12 aa]
Response line: 0.699

* * *

test system: Saccharomyces cerevisiae; assay: protein stability index of tFT-peptide fusion (C-terminal peptide) (PSI (0-1 scale)); higher = more stable (slower turnover); settings: genetic background: wild type; temperature: 30 C
Kindly return TRUE if reported protein stability index is no lower than 0.7; return FALSE if it is lower.

Reference set (4 entries):
| Sequence Data | Classification |
| --- | --- |
| TFKPIYLWALDL [SPP382 C-terminal 12 aa] | FALSE |
| KPGGSKKRKTKA [RFC1 C-terminal 12 aa] | TRUE |
| EMVKKHALNGRI [NRS1 C-terminal 12 aa] | FALSE |
| KLIHIPIRYVIV [SSS1 C-terminal 12 aa] | FALSE |

API: the following record is the query input.
Prompt line: I'd appreciate it if you could say whether KNLQNELEKNNA [RTN1 C-terminal 12 aa] has protein stability index at least equal to 0.7.
Response line: FALSE
